Test system: LXRb homodimer (NR concentration 270 nM)
Measurement protocol: PBM binding z-score (relative to random genomic background probes); higher = stronger binding; sequences stand for … in GC…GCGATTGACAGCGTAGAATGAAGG

| Biosequence | Subject of test | PBM binding z-score |
| --- | --- | --- |
| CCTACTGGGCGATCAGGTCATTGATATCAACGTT | LXRb homodimer (NR concentration 270 nM) | -0.539 |
| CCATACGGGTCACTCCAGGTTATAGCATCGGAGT | LXRb homodimer (NR concentration 270 nM) | 0.265 |
| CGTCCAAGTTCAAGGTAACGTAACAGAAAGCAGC | LXRb homodimer (NR concentration 270 nM) | 0.319 |
| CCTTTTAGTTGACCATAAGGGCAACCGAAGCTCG | LXRb homodimer (NR concentration 270 nM) | 1.3 |
| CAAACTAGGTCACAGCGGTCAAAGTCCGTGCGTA | LXRb homodimer (NR concentration 270 nM) | 0.739 |
| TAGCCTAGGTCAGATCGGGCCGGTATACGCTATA | LXRb homodimer (NR concentration 270 nM) | -0.232 |
| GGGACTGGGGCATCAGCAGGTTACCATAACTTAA | LXRb homodimer (NR concentration 270 nM) | 2.25 |
| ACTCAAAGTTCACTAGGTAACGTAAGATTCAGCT | LXRb homodimer (NR concentration 270 nM) | 1.83 |
| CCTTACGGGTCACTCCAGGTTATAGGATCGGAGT | LXRb homodimer (NR concentration 270 nM) | -0.0329 |
| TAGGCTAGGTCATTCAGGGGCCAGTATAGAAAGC | LXRb homodimer (NR concentration 270 nM) | 1.32 |
| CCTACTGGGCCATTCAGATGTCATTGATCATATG | LXRb homodimer (NR concentration 270 nM) | -0.418 |
| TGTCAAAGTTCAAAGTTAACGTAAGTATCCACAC | LXRb homodimer (NR concentration 270 nM) | 2.99 |
| TATACAGGGTCAAAGGCCAGAGTCCGAATGTCGA | LXRb homodimer (NR concentration 270 nM) | 2.55 |
| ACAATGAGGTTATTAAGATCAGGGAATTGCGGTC | LXRb homodimer (NR concentration 270 nM) | 0.952 |
| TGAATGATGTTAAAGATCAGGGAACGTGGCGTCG | LXRb homodimer (NR concentration 270 nM) | 0.281 |
| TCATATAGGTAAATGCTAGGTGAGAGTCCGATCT | LXRb homodimer (NR concentration 270 nM) | -0.13 |
| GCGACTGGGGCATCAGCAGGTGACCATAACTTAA | LXRb homodimer (NR concentration 270 nM) | -1.22 |
| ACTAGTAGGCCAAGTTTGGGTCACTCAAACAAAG | LXRb homodimer (NR concentration 270 nM) | -0.17 |
| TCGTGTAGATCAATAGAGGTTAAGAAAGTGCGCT | LXRb homodimer (NR concentration 270 nM) | -0.163 |
| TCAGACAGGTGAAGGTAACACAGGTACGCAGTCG | LXRb homodimer (NR concentration 270 nM) | 0.0867 |
| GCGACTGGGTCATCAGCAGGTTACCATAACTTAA | LXRb homodimer (NR concentration 270 nM) | -1.03 |
| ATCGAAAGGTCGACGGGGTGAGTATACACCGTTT | LXRb homodimer (NR concentration 270 nM) | 0.368 |
| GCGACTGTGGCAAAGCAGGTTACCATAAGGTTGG | LXRb homodimer (NR concentration 270 nM) | -1.38 |
| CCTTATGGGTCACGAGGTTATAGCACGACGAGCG | LXRb homodimer (NR concentration 270 nM) | -0.173 |
| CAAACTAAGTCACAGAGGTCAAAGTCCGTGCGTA | LXRb homodimer (NR concentration 270 nM) | 2.02 |
| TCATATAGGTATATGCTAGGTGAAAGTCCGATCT | LXRb homodimer (NR concentration 270 nM) | -0.249 |
| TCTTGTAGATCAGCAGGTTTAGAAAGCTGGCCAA | LXRb homodimer (NR concentration 270 nM) | -0.59 |
| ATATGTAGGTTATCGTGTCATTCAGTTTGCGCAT | LXRb homodimer (NR concentration 270 nM) | 0.855 |
| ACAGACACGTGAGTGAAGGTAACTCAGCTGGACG | LXRb homodimer (NR concentration 270 nM) | -0.355 |
| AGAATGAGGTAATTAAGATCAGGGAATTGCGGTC | LXRb homodimer (NR concentration 270 nM) | -0.24 |
| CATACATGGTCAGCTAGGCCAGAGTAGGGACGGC | LXRb homodimer (NR concentration 270 nM) | -0.25 |
| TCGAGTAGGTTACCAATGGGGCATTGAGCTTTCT | LXRb homodimer (NR concentration 270 nM) | -1.11 |
| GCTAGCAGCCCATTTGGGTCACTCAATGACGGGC | LXRb homodimer (NR concentration 270 nM) | -0.892 |
| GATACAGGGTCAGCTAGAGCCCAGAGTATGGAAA | LXRb homodimer (NR concentration 270 nM) | -0.471 |
| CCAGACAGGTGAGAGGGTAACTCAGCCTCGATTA | LXRb homodimer (NR concentration 270 nM) | -0.609 |
| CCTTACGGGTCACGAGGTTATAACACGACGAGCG | LXRb homodimer (NR concentration 270 nM) | -0.0357 |
| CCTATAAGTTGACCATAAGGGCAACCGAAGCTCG | LXRb homodimer (NR concentration 270 nM) | 0.387 |
| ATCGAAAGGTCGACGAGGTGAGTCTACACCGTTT | LXRb homodimer (NR concentration 270 nM) | 0.381 |
| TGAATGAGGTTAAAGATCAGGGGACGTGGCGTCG | LXRb homodimer (NR concentration 270 nM) | 1.09 |
| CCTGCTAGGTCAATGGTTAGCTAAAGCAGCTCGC | LXRb homodimer (NR concentration 270 nM) | -0.3 |
| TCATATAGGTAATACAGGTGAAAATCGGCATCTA | LXRb homodimer (NR concentration 270 nM) | 0.421 |
| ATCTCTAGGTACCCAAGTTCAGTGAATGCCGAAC | LXRb homodimer (NR concentration 270 nM) | 1.08 |
| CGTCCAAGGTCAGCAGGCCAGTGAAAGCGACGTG | LXRb homodimer (NR concentration 270 nM) | -0.659 |
| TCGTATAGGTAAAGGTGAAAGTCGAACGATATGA | LXRb homodimer (NR concentration 270 nM) | -0.167 |
| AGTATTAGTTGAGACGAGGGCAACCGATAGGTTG | LXRb homodimer (NR concentration 270 nM) | 0.115 |
| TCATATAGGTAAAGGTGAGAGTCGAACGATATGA | LXRb homodimer (NR concentration 270 nM) | -0.291 |
| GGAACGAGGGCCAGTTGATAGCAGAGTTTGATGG | LXRb homodimer (NR concentration 270 nM) | -0.96 |
| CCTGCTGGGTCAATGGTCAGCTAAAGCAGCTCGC | LXRb homodimer (NR concentration 270 nM) | -0.873 |
| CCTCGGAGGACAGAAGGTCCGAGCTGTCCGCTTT | LXRb homodimer (NR concentration 270 nM) | -0.992 |
| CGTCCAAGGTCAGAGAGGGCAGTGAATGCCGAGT | LXRb homodimer (NR concentration 270 nM) | -0.0412 |
| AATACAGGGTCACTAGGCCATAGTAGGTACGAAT | LXRb homodimer (NR concentration 270 nM) | 0.913 |

====

Quick list: PBM binding z-score per entry.
Test system: PXR homodimer (NR concentration 270 nM)
Measurement protocol: PBM binding z-score (relative to random genomic background probes); higher = stronger binding; sequences stand for … in GC…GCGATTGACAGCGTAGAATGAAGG

| Biosequence | PBM binding z-score |
| --- | --- |
| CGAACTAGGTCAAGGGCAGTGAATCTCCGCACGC | -0.131 |
| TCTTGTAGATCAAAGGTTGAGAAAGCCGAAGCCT | -0.464 |
| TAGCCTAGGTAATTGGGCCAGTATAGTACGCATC | -0.469 |
| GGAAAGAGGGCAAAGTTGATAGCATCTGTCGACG | 0.468 |
| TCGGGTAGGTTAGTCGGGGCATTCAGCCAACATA | 0.967 |
| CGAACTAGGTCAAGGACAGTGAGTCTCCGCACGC | -0.0553 |
| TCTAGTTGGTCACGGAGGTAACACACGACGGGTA | 0.258 |
| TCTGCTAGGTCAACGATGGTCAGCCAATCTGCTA | -0.979 |
| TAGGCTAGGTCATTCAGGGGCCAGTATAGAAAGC | 0.0687 |
| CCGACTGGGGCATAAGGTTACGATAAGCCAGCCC | -0.423 |
| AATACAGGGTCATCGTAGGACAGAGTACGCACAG | 0.871 |
| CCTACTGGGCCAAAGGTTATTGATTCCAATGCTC | 0.0532 |
| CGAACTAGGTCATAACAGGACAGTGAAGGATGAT | 0.386 |
| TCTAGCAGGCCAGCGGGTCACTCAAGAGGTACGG | -0.865 |
| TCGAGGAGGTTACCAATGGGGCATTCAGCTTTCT | -0.411 |
| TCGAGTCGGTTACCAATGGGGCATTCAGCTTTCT | -0.793 |
| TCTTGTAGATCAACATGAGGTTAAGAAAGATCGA | -0.155 |
| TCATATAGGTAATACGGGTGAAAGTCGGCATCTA | 0.363 |
| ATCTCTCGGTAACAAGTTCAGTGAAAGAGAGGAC | 1.77 |
| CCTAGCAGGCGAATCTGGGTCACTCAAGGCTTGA | -0.605 |
| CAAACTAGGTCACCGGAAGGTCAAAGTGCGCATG | 1.81 |
| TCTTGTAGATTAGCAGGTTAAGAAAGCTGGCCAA | 0.0335 |
| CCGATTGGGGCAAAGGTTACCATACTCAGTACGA | -0.232 |
| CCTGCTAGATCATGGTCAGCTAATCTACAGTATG | -0.524 |
| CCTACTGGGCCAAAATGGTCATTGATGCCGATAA | -0.289 |
| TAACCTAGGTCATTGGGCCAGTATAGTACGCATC | 0.379 |

Reference for the values: the supplement of paper PMC6555819
